- Test system: HepG2
- assayRemarks: drug sensitivity score (DSS) for viability; higher = more toxic; extreme values may be limits of the assay
- appliedConditions: 72 h
testReadout: drug sensitivity score
Reply: number alone, nothing else.

# annotated cases, reported drug sensitivity score shown
[
  {
    "compound": "Cc1c(O)cccc1C(=O)N[C@@H](CSc1ccccc1)[C@H](O)CN1C[C@H]2CCCC[C@H]2C[C@H]1C(=O)NC(C)(C)C",
    "drug sensitivity score": 1.8
  },
  {
    "compound": "Cc1c(F)cc(C(=O)NC2CC2)cc1-c1ccc(C(=O)NCC(C)(C)C)cn1",
    "drug sensitivity score": 0
  },
  {
    "compound": "CCNC(=O)/C=C/c1cccc(Br)c1 [cinromide]",
    "drug sensitivity score": 0
  },
  {
    "compound": "c1ccc2c(CC3=NCCN3)cccc2c1",
    "drug sensitivity score": 0
  },
  {
    "compound": "CC1(C)S[C@@H]2[C@H](NC(=O)[C@H](NC(=O)N3CCNC3=O)c3ccccc3)C(=O)N2[C@H]1C(=O)O",
    "drug sensitivity score": 0
  }
]

So for C[C@H](N)Cn1ccc2cc(F)c(Cl)cc21 , the logged drug sensitivity score turned out to be 0

// recorded drug sensitivity score for CC(C)=CCC/C(C)=C/CC/C(C)=C/CCC(=O)OC/C=C(\C)CCC=C(C)C [geranyl-farnesylacetate] : 0

// provenance: the supplement of paper PMC13380429
